system: NOMO1; test: cell viability relative to DMSO control; higher = less cytotoxic; conditions: HPLM + 10% dialyzed FBS; 48 h; 5.12 µM
Record form. Attribute: cell viability. Fill in for each entry.
Field: numeric (%). Do not append units.

# input Using the record for `NC(=O)c1cccc2nc(-c3ccc([C@H]4CCCN4)cc3F)[nH]c12` , report its cell viability.
# output 119

# input Next entry: `O=C1Nc2ccc(I)cc2/C1=C/c1cc(Br)c(O)c(Br)c1`
# output 118

# input One more molecule: `ClC1=CC\2=C(OC3=C(C=CC=C3)\N=C2N4CCNCC4)C=C1`
# output 91.7

# input Another: `O=C(O)CCn1c2c(c3ccccc31)C[C@H](N[S+](=O)([O-])c1ccc(F)cc1)CC2`
# output 116

# input Note, next up: `C[S+](=O)([O-])c1ccc(-c2cnc(N)c(C(=O)Nc3ccccc3)n2)cc1`
# output 115
